# TARGET_OF_ASSAY: human KDR enzyme (Homo sapiens)
# Construct: The cytoplasmic domain of human KDR enzyme is cloned in the form of a GST fusion; GST; made in house; host or cells: SF21 insect cells (baculovirus, pFastBac)
# Sequence (P35968 786-1356 limits assumed): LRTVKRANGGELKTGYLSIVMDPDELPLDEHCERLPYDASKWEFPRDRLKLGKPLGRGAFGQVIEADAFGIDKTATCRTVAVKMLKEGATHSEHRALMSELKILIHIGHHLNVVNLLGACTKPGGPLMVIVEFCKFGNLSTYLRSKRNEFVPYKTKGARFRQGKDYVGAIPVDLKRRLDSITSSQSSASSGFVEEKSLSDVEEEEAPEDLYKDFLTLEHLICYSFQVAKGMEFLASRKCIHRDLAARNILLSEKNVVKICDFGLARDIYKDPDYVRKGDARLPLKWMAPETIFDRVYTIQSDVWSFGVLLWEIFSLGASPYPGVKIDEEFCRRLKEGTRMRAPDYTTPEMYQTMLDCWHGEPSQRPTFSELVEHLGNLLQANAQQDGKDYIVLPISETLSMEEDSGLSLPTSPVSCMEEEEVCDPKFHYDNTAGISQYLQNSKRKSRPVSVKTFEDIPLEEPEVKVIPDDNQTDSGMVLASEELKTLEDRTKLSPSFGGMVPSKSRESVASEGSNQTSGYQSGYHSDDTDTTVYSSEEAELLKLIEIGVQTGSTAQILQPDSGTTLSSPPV
# TEST: Phosphorylation of the substrate PLCγ by the enzyme KDR in vitro (flashplate technique)
# Assay type: biochemical
# CONDITION_NOTES: Table VII, degrees of activity by IC50 range; read-out: Activity
PROPERTY_LABEL: IC50

                              record_smiles  property_label  reported_value
0  O=C(NCc1c(F)cc(Cl)cc1Cl)c1ccc2[nH]c(-c3n[nH]c4ccccc34)nc2c1            IC50        < 0.3 µM
1  Cn1c(CNC(=O)c2ccc3[nH]c(-c4n[nH]c5ccccc45)nc3c2)nc2ccccc21            IC50     0.3 to 3 µM
2  O=C(COc1cc(-c2nc3ccccc3[nH]2)[nH]n1)c1cc(-c2ccccc2)no1            IC50          > 3 µM
3  O=C(NCc1c(F)cc(Cl)cc1F)c1ccc2[nH]c(-c3n[nH]c4ccccc34)nc2c1            IC50        < 0.3 µM
4  c1ccc2c(-c3nc4ccc(-c5csc6ccccc56)cc4[nH]3)[nH]nc2c1            IC50          > 3 µM
5  CC(=O)c1cccc(-c2ccc3nc(-c4[nH]nc5ccccc45)[nH]c3c2)c1            IC50          > 3 µM
6  CCOCCCNC(=O)c1ccc2[nH]c(-c3n[nH]c4ccccc34)nc2c1            IC50     0.3 to 3 µM
7  COc1ccc(-c2ccc3nc(-c4[nH]nc5ccccc45)[nH]c3c2)cc1            IC50     0.3 to 3 µM
